# Measured target: CDK6/CyclinD1 (Homo sapiens)
# Sequence (Q00534 whole entry): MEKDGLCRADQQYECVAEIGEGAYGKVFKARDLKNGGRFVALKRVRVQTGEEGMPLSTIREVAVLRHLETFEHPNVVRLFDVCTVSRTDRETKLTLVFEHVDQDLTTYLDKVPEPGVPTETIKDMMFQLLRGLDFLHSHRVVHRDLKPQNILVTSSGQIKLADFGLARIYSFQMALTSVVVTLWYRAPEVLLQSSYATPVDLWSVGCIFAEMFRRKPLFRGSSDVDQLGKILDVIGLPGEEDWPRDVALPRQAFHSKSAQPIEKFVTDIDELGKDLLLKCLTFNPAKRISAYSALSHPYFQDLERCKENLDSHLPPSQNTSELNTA
# Sequence (P24385 whole entry partner): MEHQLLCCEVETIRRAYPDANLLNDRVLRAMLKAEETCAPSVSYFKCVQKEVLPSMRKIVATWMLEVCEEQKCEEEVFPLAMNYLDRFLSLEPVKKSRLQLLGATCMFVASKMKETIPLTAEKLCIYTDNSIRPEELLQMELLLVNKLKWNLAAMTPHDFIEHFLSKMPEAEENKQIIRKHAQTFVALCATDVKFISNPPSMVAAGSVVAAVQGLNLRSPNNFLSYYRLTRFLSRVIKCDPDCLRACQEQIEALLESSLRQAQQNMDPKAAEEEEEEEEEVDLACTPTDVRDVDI
# Experimental details: In vitro cell-free CDK6/CyclinD1 kinase activity assay (TR-FRET)
# Condition notes: ATP at Km
Readout: IC50

Known results for molecules:
smiles_notation=C1=C(c2c(-c3cncnc3)cc3cnc(Nc4ccc(N5CCC6(CCNCC6)CC5)cn4)nn23)CCC1 readout=IC50 reported="< 100 nM"
smiles_notation=[2H]C([2H])([2H])N(C(=O)c1cc2cnc(Nc3ccc(N4CCN(C)CC4)cn3)nn2c1C1=CCOCC1)C([2H])([2H])[2H] readout=IC50 reported="< 100 nM"
smiles_notation=COc1cc(F)ccc1-c1c(C(=O)N(C)C)cc2cnc(Nc3ccc(N4CCNCC4)cn3)nn12 readout=IC50 reported="< 100 nM"

query: Look up IC50 of [2H]C([2H])([2H])N(C(=O)c1cc2cnc(Nc3ccc(N4CCNCC4)cn3)nn2c1C1=CCCC1)C([2H])([2H])[2H] and report it.
result: < 100 nM

====

Listing: IC50 of selected compounds
# Measured target: CDK6/CyclinD1 (Homo sapiens)
# Experimental details: In vitro cell-free CDK6/CyclinD1 kinase activity assay (TR-FRET)
# Condition notes: ATP at Km

Known results for compounds:
smiles_notation=[2H]C([2H])([2H])C([2H])([2H])N1CCN(c2ccc(Nc3ncc4cc(C(=O)N(C)C)c(C5=CCCC5)n4n3)nc2)CC1 measured_target="CDK6/CyclinD1 (Homo sapiens)" reported="< 100 nM"
smiles_notation=Cc1cc(-c2cc3cnc(Nc4ccc(N5CCNCC5)cn4)nn3c2C2=CCCC2)ccn1 measured_target="CDK6/CyclinD1 (Homo sapiens)" reported="< 100 nM"
smiles_notation=[2H]C([2H])([2H])N(C(=O)c1cc2cnc(Nc3ccc(N4CCNCC4)cn3)nn2c1C1=CCOCC1)C([2H])([2H])[2H] measured_target="CDK6/CyclinD1 (Homo sapiens)" reported="< 100 nM"

query: Look up IC50 of Cn1cc(-c2cc3cnc(Nc4ccc(N5CCNCC5)cn4)nn3c2C2=CCCC2)ncc1=O and report it.
result: 100 to 1000 nM

====

# Measured target: CDK6/CyclinD1 (Homo sapiens)
# Experimental details: In vitro cell-free CDK6/CyclinD1 kinase activity assay (TR-FRET)
# Condition notes: ATP at Km
pIC50: −log10 of the molar value.
Readout: pIC50

compound="C1=C(c2c(-c3ccncc3)cc3cnc(Nc4ccc(N5CCNCC5)cn4)nn23)CCC1 [Example 97]" measured_target="CDK6/CyclinD1 (Homo sapiens)" reported="> 7.00"
compound="CN(C)C(=O)c1cc2cnc(Nc3ccc(N4CCC5(CC4)CC5)cn3)nn2c1C1=CCCC1 [Example 35]" measured_target="CDK6/CyclinD1 (Homo sapiens)" reported="6.00 to 7.00"

query: Give pIC50 only, for CN1CCN(c2ccc(Nc3ncc4cc(C(=O)N(C)C)c(C5=CCCC5)n4n3)nc2)CC1 [Example 99] , using CDK6/CyclinD1 (Homo sapiens) data.
result: > 7.00

query: Give pIC50 only, for Cn1ccc(-c2cc3cnc(Nc4ccc(N5CCNCC5)cn4)nn3c2C2=CCCC2)cc1=O [Example 80] , using CDK6/CyclinD1 (Homo sapiens) data.
result: > 7.00

query: Give pIC50 only, for N#Cc1cc2cnc(Nc3ccc(N4CCNCC4)cc3)nn2c1-c1ccc(F)cc1 [Example 13] , using CDK6/CyclinD1 (Homo sapiens) data.
result: > 7.00

query: Give pIC50 only, for COc1ccc(-c2c(-c3cnn(C)c3)cc3cnc(Nc4ccc(N5CCNCC5)cn4)nn23)cc1 [Example 19] , using CDK6/CyclinD1 (Homo sapiens) data.
result: > 7.00

query: Give pIC50 only, for COCCOc1ccc(-c2c(C(=O)N(C)C)cc3cnc(Nc4ccc(N5CCC6(CC5)CNC6)cn4)nn23)cc1 [Example 48] , using CDK6/CyclinD1 (Homo sapiens) data.
result: > 7.00

query: Give pIC50 only, for Cn1cc(-c2cc3cnc(Nc4ccc(N5CCNCC5)cn4)nn3c2C2CCCC2)cn1 [Example 71] , using CDK6/CyclinD1 (Homo sapiens) data.
result: > 7.00

Reference for the values: patent US20230002393A1
